biological target: PDGF-R (Homo sapiens); test: PDGF-R ELISA; assay type: cell-based
Sequence (P09619 33-1106, species assumed): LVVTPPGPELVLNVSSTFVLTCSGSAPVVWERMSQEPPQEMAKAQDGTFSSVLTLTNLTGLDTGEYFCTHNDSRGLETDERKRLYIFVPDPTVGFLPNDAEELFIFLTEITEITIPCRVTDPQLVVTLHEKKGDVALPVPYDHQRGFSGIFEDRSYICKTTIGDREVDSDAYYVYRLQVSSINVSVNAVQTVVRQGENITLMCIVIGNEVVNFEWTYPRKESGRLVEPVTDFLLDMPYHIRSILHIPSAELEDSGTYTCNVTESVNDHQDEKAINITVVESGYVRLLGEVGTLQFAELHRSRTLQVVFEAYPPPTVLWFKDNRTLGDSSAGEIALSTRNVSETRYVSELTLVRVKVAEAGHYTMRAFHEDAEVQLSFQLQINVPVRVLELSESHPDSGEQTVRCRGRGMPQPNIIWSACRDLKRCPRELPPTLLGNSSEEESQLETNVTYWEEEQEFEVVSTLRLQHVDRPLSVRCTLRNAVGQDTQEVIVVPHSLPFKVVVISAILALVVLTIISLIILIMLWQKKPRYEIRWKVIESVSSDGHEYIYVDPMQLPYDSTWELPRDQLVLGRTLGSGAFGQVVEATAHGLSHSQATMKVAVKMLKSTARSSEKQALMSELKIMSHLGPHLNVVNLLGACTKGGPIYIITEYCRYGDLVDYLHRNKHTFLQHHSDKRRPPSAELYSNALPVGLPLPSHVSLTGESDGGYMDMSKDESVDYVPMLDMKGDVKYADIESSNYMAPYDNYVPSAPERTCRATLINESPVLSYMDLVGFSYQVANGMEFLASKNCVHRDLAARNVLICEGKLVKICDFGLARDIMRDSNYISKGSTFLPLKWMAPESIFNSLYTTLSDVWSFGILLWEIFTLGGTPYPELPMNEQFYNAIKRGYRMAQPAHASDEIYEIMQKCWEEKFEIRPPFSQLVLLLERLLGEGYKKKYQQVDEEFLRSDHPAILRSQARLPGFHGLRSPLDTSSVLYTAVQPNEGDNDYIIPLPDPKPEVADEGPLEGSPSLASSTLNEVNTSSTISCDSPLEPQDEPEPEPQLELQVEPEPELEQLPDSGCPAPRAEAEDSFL
PDGF Kinase %Inhibition less than 20% is condition met; PDGF Kinase %Inhibition greater than or equal to 20% is condition not met.

Exercise: Please determine if O=C1Nc2ccc(I)cc2C1=Cc1cccc(F)c1O is below 20% in terms of PDGF Kinase %Inhibition.
Key: condition met

Exercise: Please determine if O=C1Nc2ccc(S(=O)(=O)Nc3ccc(C(F)(F)F)cc3)cc2C1=Cc1ccc(O)c(O)c1O is below 20% in terms of PDGF Kinase %Inhibition.
Key: condition not met

Exercise: Please determine if O=C1Nc2ccc(CCCl)cc2C1=Cc1cc2c3c(c1O)CCCN3CCC2 is below 20% in terms of PDGF Kinase %Inhibition.
Key: condition met

Exercise: Please determine if CCc1ccc(C=C2C(=O)Nc3c(Br)cc(Br)cc32)o1 is below 20% in terms of PDGF Kinase %Inhibition.
Key: condition not met

Exercise: Please determine if O=C1Nc2ccc(I)cc2C1=Cc1ccc(N2CCCC2)cc1 is below 20% in terms of PDGF Kinase %Inhibition.
Key: condition met

Exercise: Please determine if Cc1c(Br)ccc2c1C(=Cc1cc(C(F)(F)F)ccc1F)C(=O)N2 is below 20% in terms of PDGF Kinase %Inhibition.
Key: condition met

Exercise: Please determine if CNS(=O)(=O)c1ccc2c(c1)C(=Cc1cc(C(C)C)c(Oc3ccccc3)c(C(C)C)c1)C(=O)N2 is below 20% in terms of PDGF Kinase %Inhibition.
Key: condition not met

Exercise: Please determine if O=C1Nc2ccc(S(=O)(=O)Nc3ccc(C(F)(F)F)cc3)cc2C1=Cc1ccc([N+](=O)[O-])s1 is below 20% in terms of PDGF Kinase %Inhibition.
Key: condition not met

Exercise: Please determine if O=C1Nc2ccc(S(=O)(=O)Nc3ccc(C(F)(F)F)cc3)cc2C1=Cc1ccc(Br)s1 is below 20% in terms of PDGF Kinase %Inhibition.
Key: condition met

Exercise: Please determine if O=C1Nc2c(Br)cc(Br)cc2C1=Cc1ccc(C(F)(F)F)cc1 is below 20% in terms of PDGF Kinase %Inhibition.
Key: condition not met

Exercise: Please determine if CCc1cc(CC)c(C=C2C(=O)Nc3ccc(Br)c(C)c32)[nH]1 is below 20% in terms of PDGF Kinase %Inhibition.
Key: condition met

Exercise: Please determine if CNS(=O)(=O)c1ccc2c(c1)C(=Cc1cc([N+](=O)[O-])ccc1O)C(=O)N2 is below 20% in terms of PDGF Kinase %Inhibition.
Key: condition met

Exercise: Please determine if Cc1cc(C=C2C(=O)Nc3ccc(CCCl)cc32)oc1C is below 20% in terms of PDGF Kinase %Inhibition.
Key: condition met

Exercise: Please determine if COC(=O)Cc1c(Cl)[nH]c(C=C2C(=O)Nc3ccc(Br)c(C)c32)c1C(=O)OC is below 20% in terms of PDGF Kinase %Inhibition.
Key: condition not met

Exercise: Please determine if Cc1cc(C=C2C(=O)Nc3c(Br)cc(Br)cc32)[nH]n1 is below 20% in terms of PDGF Kinase %Inhibition.
Key: condition met

Exercise: Please determine if O=C1Nc2ccc(S(=O)(=O)N3CCOCC3)cc2C1=Cc1cccc(F)c1O is below 20% in terms of PDGF Kinase %Inhibition.
Key: condition met

Exercise: Please determine if O=C1Nc2ccc(I)cc2C1=Cc1cccc(Oc2ccccc2)c1 is below 20% in terms of PDGF Kinase %Inhibition.
Key: condition met

Exercise: Please determine if COc1cc(Br)cc(C=C2C(=O)Nc3ccc(Br)c(C)c32)c1O is below 20% in terms of PDGF Kinase %Inhibition.
Key: condition met

Exercise: Please determine if CCc1ccc(C=C2C(=O)Nc3ccc(I)cc32)o1 is below 20% in terms of PDGF Kinase %Inhibition.
Key: condition met

Exercise: Please determine if COc1c(Br)cc(C=C2C(=O)Nc3ccc(CCCl)cc32)cc1C(C)(C)C is below 20% in terms of PDGF Kinase %Inhibition.
Key: condition not met

Exercise: Please determine if O=C1Nc2c(Br)cc(Br)cc2C1=Cc1sccc1Br is below 20% in terms of PDGF Kinase %Inhibition.
Key: condition met

Exercise: Please determine if O=C1Nc2ccc(I)cc2C1=Cc1cccnc1 is below 20% in terms of PDGF Kinase %Inhibition.
Key: condition met

Exercise: Please determine if N#Cc1ccc(C=C2C(=O)Nc3c(Br)cc(Br)cc32)cc1 is below 20% in terms of PDGF Kinase %Inhibition.
Key: condition met

Exercise: Please determine if O=C1Nc2ccc(CCCl)cc2C1=Cc1ccc(O)c(O)c1O is below 20% in terms of PDGF Kinase %Inhibition.
Key: condition met

Exercise: Please determine if O=C1Nc2ccc(S(=O)(=O)Nc3ccc(C(F)(F)F)cc3)cc2C1=Cc1cccnc1 is below 20% in terms of PDGF Kinase %Inhibition.
Key: condition met

Exercise: Please determine if CSc1ccc(C=C2C(=O)Nc3ccc(CCCl)cc32)cc1 is below 20% in terms of PDGF Kinase %Inhibition.
Key: condition met

Exercise: Please determine if O=C1Nc2ccc(S(=O)(=O)N3CCOCC3)cc2C1=Cc1cc([N+](=O)[O-])ccc1O is below 20% in terms of PDGF Kinase %Inhibition.
Key: condition met

Exercise: Please determine if O=C1Nc2ccc(I)cc2C1=Cc1coc2ccccc2c1=O is below 20% in terms of PDGF Kinase %Inhibition.
Key: condition met

Exercise: Please determine if CNS(=O)(=O)c1ccc2c(c1)C(=Cc1cc3ccccc3nc1Cl)C(=O)N2 is below 20% in terms of PDGF Kinase %Inhibition.
Key: condition met

Exercise: Please determine if O=C(O)COc1ccccc1C=C1C(=O)Nc2ccc(CCCl)cc21 is below 20% in terms of PDGF Kinase %Inhibition.
Key: condition met

Exercise: Please determine if O=C1Nc2ccc(S(=O)(=O)Nc3ccc(C(F)(F)F)cc3)cc2C1=Cc1ccc(-c2ccccc2Cl)o1 is below 20% in terms of PDGF Kinase %Inhibition.
Key: condition not met

Exercise: Please determine if O=C1Nc2ccc(I)cc2C1=Cc1cc2ccccc2o1 is below 20% in terms of PDGF Kinase %Inhibition.
Key: condition not met

Exercise: Please determine if Cc1c(Br)ccc2c1C(=Cc1cc(O)c(O)c(Br)c1)C(=O)N2 is below 20% in terms of PDGF Kinase %Inhibition.
Key: condition not met

Exercise: Please determine if O=C(O)COc1ccccc1C=C1C(=O)Nc2c(Br)cc(Br)cc21 is below 20% in terms of PDGF Kinase %Inhibition.
Key: condition met

Exercise: Please determine if CC(C)(C)c1cc(C=C2C(=O)Nc3ccc(I)cc32)cc(C(C)(C)C)c1OCc1ccccc1 is below 20% in terms of PDGF Kinase %Inhibition.
Key: condition not met

Exercise: Please determine if CCOc1cccc(C=C2C(=O)Nc3ccc(I)cc32)c1O is below 20% in terms of PDGF Kinase %Inhibition.
Key: condition met

Exercise: Please determine if Cc1ccc2occ(C=C3C(=O)Nc4ccc(Br)c(C)c43)c(=O)c2c1 is below 20% in terms of PDGF Kinase %Inhibition.
Key: condition met
